For each record, write down the corresponding IC50.
target-of-assay: full-length beta-Catenin (Uniprot ID P35222) (Homo sapiens (Human)) (UniProt P35222)
Sequence (P35222 2-781 limits assumed): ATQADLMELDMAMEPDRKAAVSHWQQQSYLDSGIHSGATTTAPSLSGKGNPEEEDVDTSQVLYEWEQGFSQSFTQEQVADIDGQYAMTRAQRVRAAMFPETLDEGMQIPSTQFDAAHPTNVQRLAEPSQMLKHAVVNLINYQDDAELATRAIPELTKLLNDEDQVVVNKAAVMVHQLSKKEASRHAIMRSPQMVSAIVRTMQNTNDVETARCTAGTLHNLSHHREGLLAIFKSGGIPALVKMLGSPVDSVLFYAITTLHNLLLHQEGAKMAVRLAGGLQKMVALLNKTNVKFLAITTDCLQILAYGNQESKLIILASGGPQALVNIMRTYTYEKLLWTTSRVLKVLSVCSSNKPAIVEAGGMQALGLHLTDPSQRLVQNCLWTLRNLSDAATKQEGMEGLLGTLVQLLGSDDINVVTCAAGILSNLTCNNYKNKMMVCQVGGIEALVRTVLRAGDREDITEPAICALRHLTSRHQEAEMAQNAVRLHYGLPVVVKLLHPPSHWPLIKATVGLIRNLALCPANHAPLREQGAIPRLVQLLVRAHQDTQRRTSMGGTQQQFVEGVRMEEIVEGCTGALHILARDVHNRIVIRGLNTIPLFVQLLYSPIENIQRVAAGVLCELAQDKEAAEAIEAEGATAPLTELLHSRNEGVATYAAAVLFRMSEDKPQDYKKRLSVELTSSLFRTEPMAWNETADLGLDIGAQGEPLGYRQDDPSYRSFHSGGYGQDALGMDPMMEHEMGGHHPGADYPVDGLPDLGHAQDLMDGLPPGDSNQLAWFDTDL
experiment: fluorescence polarization competition; displaces 5FAM-TCF4(10-53) from full-length beta-catenin
Starred links: 1 amine or outer side, 2 acyl side, 3 side chain; linkers in the order of their positions; H or OH if unused. Positions of bridges follow the written chain, without caps; N, C: chain ends. Non-standard residues stand in square brackets, D forms with d. Primed or numbered codes have the meaning given here. B5(15) = 2-amino-2-(pent-4-en-1-yl)hept-6-enoic acid (2,2-bis(4-pentenyl)glycine), stitching residue bearing two staples, C=CCCCC(CCCC=C)(N[*:1])C(=O)[*:2]; B5(23) = 2-amino-2-(pent-4-en-1-yl)hept-6-enoic acid (2,2-bis(4-pentenyl)glycine), stitching residue, C=CCCCC(CCCC=C)(N[*:1])C(=O)[*:2]; PyrS2 = (S)-3-amino-1-((pent-4-en-1-yloxy)carbonyl)pyrrolidine-3-carboxylic acid, C=CCCCOC(=O)N1CC[C@@](N[*:1])(C(=O)[*:2])C1; Bta = N[C@@H](Cc1csc2ccccc12)C(=O)O; αAllylPro = C=CC[C@@]1(C(=O)O)CCCN1; tBuAla = CC(C)(C)C[C@H](N)C(=O)O; 3Thi = N[C@@H](Cc1ccsc1)C(=O)O; S8 = C=CCCCCCC[C@](C)(N)C(=O)O; hLeu = CC(C)CC[C@H](N)C(=O)O; hSer = N[C@@H](CCO)C(=O)O
Give me the value, and tack the unit on after it.

Value lookup for IC50; key = Ac-[αAllylPro]D[hLeu][B5(15)]DEAAF[hSer][S8]F[Bta]Q-NH2 (staple 1-4, 4-11; not fully specified; printed as Ac-PL3-Asp-Hleu-B5-Asp-Glu-Ala-Ala-Phe-Hse-S8-Phe-BztA-Gln-NH2) [I-1538]
21 nM

Same thing, different binder: Ac-[αAllylPro]D[hLeu][B5(15)]DEAAFL[S8]F[Bta]Q-NH2 (staple 1-4, 4-11) [I-1536]
42 nM

Same thing, different binder: Ac-[αAllylPro]D[tBuAla][B5(23)]NNAAFN[PyrS2][3Thi][Bta]Q-NH2 (staple 1-4, 4-11) [I-1555]
180 nM

Same thing, different binder: Ac-[αAllylPro]D[hLeu][B5(15)]DEAAF[hSer][S8]F[Bta]Q-NH2 (staple 1-4, 4-11; not fully specified; printed as Ac-PL3-Asp-Hleu-B5-Asp-Glu-Ala-Ala-Phe-Hse-S8-Phe-BztA-Gln-NH2) [I-1537]
31 nM
